Molecular target: Cft1;Pfs2;Yth1;Fip1;Pap1;Cft2 (Saccharomyces cerevisiae;Saccharomyces …, UniProt Q06632;P42841;Q06102;P45976;P29468;Q12102 1-1357;1-465;1-208;1-327;1-568;1-859, |||||)
Assay: EMSA; CPFpol + Cft2; EMSA: 50 nM RNA, 0.25-4.0 uM protein, protein diluted in 10 mM HEPES pH 7.9, 150 mM NaCl, 0.5 mM Mg(OAc)2, plus 1x loading dye (orange G, glycerol, EDTA); 30 min on ice; native 6% acrylamide/TBE PAGE
Conditions: protein: recombinant;recombinant;recombinant;recombinant;recombinant;recombinant, tags: ;3C-SII;3C-8H, untagged in CPFpol+Cft2;;SII (Pap1-SII) when alone, untagged in CPFpol and CPFcore;SII (Cft2-SII) when alone, copies: 1;2;1;1;1;1, label: 5'-FAM
test.readout: binding result

# example entries with known answers
CGUUAUUUAUAUUUCAAAUUUUUCU (ssRNA) [CYC1f EMSA probe]    binds
AAAAAAAAAAAAAAA (ssRNA) [A15]    binds
AAGAACGUUAUUUAUAUUUCAAAUUUUUCUUUUUU (ssRNA) [CYC1d EMSA probe]    binds
UUUUUUUUUUUUUUU (ssRNA) [U15]    no binding
GGGGGGGGGGGGGGG (ssRNA) [G15]    binds

Continue with the next binder.
In: Using the record for CCCCCCCCCCCCCCC (ssRNA) [C15] , report its binding result.
Out: no binding
